Recorded AC50 values for a group of compounds are listed next.
# System: Replicative DNA helicase DnaB (Mycobacterium tuberculosis)
# Sequence (P9WMR3 1-399, added parts left off): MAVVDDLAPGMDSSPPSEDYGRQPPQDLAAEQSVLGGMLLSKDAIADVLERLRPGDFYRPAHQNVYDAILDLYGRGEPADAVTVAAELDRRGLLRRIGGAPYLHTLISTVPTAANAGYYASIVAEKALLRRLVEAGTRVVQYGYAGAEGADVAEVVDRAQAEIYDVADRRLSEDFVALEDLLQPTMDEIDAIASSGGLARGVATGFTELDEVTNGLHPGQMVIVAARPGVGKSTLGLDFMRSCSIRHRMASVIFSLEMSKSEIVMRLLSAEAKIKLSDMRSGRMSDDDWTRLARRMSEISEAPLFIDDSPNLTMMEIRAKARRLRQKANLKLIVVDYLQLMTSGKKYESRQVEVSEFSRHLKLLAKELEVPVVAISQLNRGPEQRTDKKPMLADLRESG
# Run description: DnaB intein splicing inhibitors, dose response, biochemical, cell-free fluorescence (AID 449749)
# Assay type: functional
Active and inactive are the calls of the source.

Compound: CC(=O)Oc1cc2c(cc1Cl)C1(CC(c3ccccc3Cl)O2)CC(C)(C)N=C(S)N1 (centres undefined)
Quantity kind: AC50
Measurement: 4.22 µM (active)

Compound: C/C(CC(=O)Nc1cc(C)ccn1)=N\NC(=O)c1cccc(F)c1
Quantity kind: AC50
Measurement: 18.7 µM (active)

Compound: CSC(=N/c1cc(Cl)ccc1Cl)/C(C#N)=C(/O)c1ccco1
Quantity kind: AC50
Measurement: 2.51 µM (active)

Please look at this compound and report its AC50: CNc1ccc2nc3ccccc3[n+](C)c2c1.[O-][Cl+3]([O-])([O-])[O-] > 380 µM (inactive)

Answer with the recorded AC50 of COc1ccc(N/N=C(\C#N)C(=N)SCc2ccccc2)cc1 only. 3.6 µM (active)

Using the record for CN(Cc1ccc(Cl)cc1)C(=O)CCl , state its measured AC50. 21.8 µM (active)

# return recorded AC50 for input COC(=O)c1c(C)oc2ccc(N(C(=O)c3ccncc3)S(=O)(=O)c3ccc(C)cc3C)cc12 2.27 µM (active)

Quick one: give measured AC50 for Cc1cccc(NC2=C(NC(=O)c3ccccc3)C(=O)c3ccccc3C2=O)c1 3.96 µM (active)

Provide one value: measured AC50 of O=[N+]([O-])c1cc(O)c2ncccc2c1 6.95 µM (active)

State, in one line, measured AC50 of Oc1ccc(Nc2nc(-c3ccc4ccccc4c3)cs2)cc1 67.6 µM (active)

Recall and state the measured AC50 for CC(=O)N1CC2(c3ccccc3)CN(C(C)=O)CC(c3ccccc3)(C1)C2=O . > 380 µM (inactive)

State, in one line, measured AC50 of CCCc1n[nH]c2c1C(c1ccc(O)cc1OCC)C(C#N)=C(N)O2 (centres undefined) 40.3 µM (active)

Annotate the compound CC(C)=CCC1=C(OCC(=O)O)C(=O)c2ccccc2C1=O with its measured AC50. 9.19 µM (active)

Specify reported AC50 for the compound shown: Cc1[nH][nH]c(=O)c1C(c1c(C)[nH][nH]c1=O)c1cn(Cc2ccccc2Cl)c2ccccc12 0.242 µM (active)

###

# System: Ubiquitin-conjugating enzyme E2 N (Homo sapiens);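 also: Dose-response confirmation in a TR-FRET assay detecting UBC13-driven polyubiquitin chain formation, inhibition measured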
# Sequence (P61088 whole entry): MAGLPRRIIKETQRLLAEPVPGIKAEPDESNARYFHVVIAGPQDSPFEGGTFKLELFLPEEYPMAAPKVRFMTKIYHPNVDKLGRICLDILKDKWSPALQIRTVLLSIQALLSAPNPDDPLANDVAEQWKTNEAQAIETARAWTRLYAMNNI
# Type: functional
The source made the active and inactive calls.
Some compounds, each annotated with its measured IC50.

Some entries whose results are on file:
Compound: CCn1c(=O)cc(SCC(=O)N2CCN(C3CCCCC3)CC2)c2ccccc21
IC50: 14.5 µM (active)

Compound: NC(=S)N=Nc1c(O)n(CCCl)c2ccccc12
IC50: 18 µM (active)

Compound: CCOc1ccc(NC(=S)N=Nc2c(O)[nH]c3ccccc23)cc1
IC50: > 20 µM (inactive)

Give IC50 for the following compound: NC(=O)c1nsc(C(=O)N(c2ccc(F)cc2)C(C(=O)NCC2CCCO2)c2c[nH]c3ccccc23)c1N (centres undefined) > 20 µM (inactive)

###

# System: Cytochrome P450 1A2 (Homo sapiens)
# Sequence (P05177 whole entry): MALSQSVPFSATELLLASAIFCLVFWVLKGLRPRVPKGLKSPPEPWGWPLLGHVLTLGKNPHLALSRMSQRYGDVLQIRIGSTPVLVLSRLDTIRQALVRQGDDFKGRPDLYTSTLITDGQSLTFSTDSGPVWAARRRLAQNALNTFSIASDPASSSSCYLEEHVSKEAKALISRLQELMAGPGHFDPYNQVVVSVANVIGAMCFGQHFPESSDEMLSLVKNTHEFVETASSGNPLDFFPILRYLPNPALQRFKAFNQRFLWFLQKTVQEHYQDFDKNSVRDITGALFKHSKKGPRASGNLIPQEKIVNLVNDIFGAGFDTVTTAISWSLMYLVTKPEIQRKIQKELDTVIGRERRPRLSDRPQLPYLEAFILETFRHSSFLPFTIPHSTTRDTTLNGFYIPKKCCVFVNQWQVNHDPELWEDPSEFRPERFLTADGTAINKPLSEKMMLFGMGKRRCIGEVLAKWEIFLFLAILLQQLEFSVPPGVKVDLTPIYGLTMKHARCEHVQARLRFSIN
Quantity kind: AC50

Compound: COc1ccccc1NC(=O)C1=C(C)Nc2nnnn2C1c1cccc(Br)c1 (centres undefined)
System: Cytochrome P450 1A2 (Homo sapiens);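 also: PubChem cytochrome P450 panel assay, CYP1A2 panel member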
AC50: 31.6 µM (inconclusive)

Provide AC50, recorded with Cytochrome P450 1A2 (Homo sapiens), of CCS(=O)(=O)c1ccc(O)c(NC(=O)Nc2ccccc2)c1 20 µM (inconclusive)

Under Cytochrome P450 1A2 (Homo sapiens), report AC50 for CN1CCN(C(=O)c2ccc(COc3ccc(C(C)(C)C)cc3)o2)CC1 12.6 µM (inconclusive)

Write AC50 of CCCCC/N=c1\ccn(Cc2ccccc2)c2ccccc12 ; system used: Cytochrome P450 1A2 (Homo sapiens) 25.1 µM (inconclusive)

// output AC50; input CC(C)C(=O)N1C2CCC1CC(O)(c1ccc(F)cc1)C2 (centres undefined) ; system Cytochrome P450 1A2 (Homo sapiens) 17.8 µM (inconclusive)

Under Cytochrome P450 1A2 (Homo sapiens), report AC50 for COc1ccc(CNc2ccnc(-c3ccccc3CN(C)C)n2)c(OC)c1 15.8 µM (inconclusive)
